Listing of entries alongside the reported Activity.
Test system: Avian myeloblastosis virus
Experiment: Inhibition of AMV reverse transcriptase activity assessed as incorporation of dGMP in poly(rC)-oligo(dG) at 0.1 uM
Design: scale not given: the % may be the effect or the level left

molecule | tested_on | Activity (%)
O=C1O[C@H]2[C@@H]3OC(=O)c4cc(O)c(O)c(O)c4-c4c(cc(O)c(O)c4O)C(=O)OC[C@H]2O[C@@H](OC(=O)c2cc(O)c(O)c(O)c2)[C@@H]3OC(=O)c2cc(O)c(O)c3c2[C@@H]2C1=CC(=O)[C@](O)(O3)C2(O)O | Avian myeloblastosis virus | 103
O=C[C@@H]1OC(=O)c2c3c(O)c(O)c(O)c2-c2c(cc(O)c(O)c2O)C(=O)O[C@H]1[C@@H]1OC(=O)c2c(c(O)c(O)c(O)c2-c2c(cc(O)c(O)c2O)C(=O)O[C@H]1COC(=O)c1cc(O)c(O)c(O)c1)O[C@H]1[C@@H]2OC(=O)c4cc(O)c(O)c(O)c4-c4c(cc(O)c(O)c4O)C(=O)O[C@H]2[C@H](OC(=O)c2cc(O)c(O)c(O)c2)O[C@@H]1CO3 | Avian myeloblastosis virus | 106
O=C(O[C@@H]1O[C@@H]2COC(=O)c3cc(O)c(O)c(O)c3-c3c(cc(O)c(O)c3O)C(=O)O[C@H]2[C@H](OC(=O)c2cc(O)c(O)c(O)c2)[C@H]1OC(=O)c1cc(O)c(O)c(O)c1)c1cc(O)c(O)c(Oc2c(C(=O)O[C@H]3O[C@@H]4COC(=O)c5cc(O)c(O)c(O)c5-c5c(cc(O)c(O)c5O)C(=O)O[C@H]4[C@H](OC(=O)c4cc(O)c(O)c(O)c4)[C@H]3OC(=O)c3cc(O)c(O)c(O)c3)cc(O)c(O)c2O)c1 | Avian myeloblastosis virus | 102
O=C[C@H](OC(=O)c1cc(O)c(O)c(O)c1)[C@@H](OC(=O)c1cc(O)c(O)c(O)c1)[C@@H]1OC(=O)c2cc(O)c(O)c(O)c2-c2c(cc(Oc3c(C(=O)O[C@@H](C=O)[C@@H](OC(=O)c4cc(O)c(O)c(O)c4)[C@@H]4OC(=O)c5cc(O)c(O)c(O)c5-c5c(cc(O)c(O)c5O)C(=O)OC[C@H]4O)cc(O)c(O)c3O)c(O)c2O)C(=O)OC[C@H]1O | Avian myeloblastosis virus | 105
O=C(O)C[C@H]1C(=O)O[C@H]2[C@H](OC(=O)c3cc(O)c(O)c(O)c3)[C@@H](OC(=O)c3cc(O)c(O)c4c3[C@H]1[C@H](O)C(=O)O4)[C@H](OC(=O)c1cc(O)c(O)c(O)c1)O[C@@H]2COC(=O)c1cc(O)c(O)c(O)c1 | Avian myeloblastosis virus | 75
O=C(O[C@H]1O[C@@H]2COC(=O)c3cc(O)c(O)c(O)c3-c3c(cc(O)c(O)c3O)C(=O)O[C@H]2[C@@H]2OC(=O)c3cc(O)c(O)c(O)c3-c3c(cc(O)c(O)c3O)C(=O)O[C@@H]12)c1cc(O)c(O)c(Oc2c(C(=O)O[C@H]3O[C@@H]4COC(=O)c5cc(O)c(O)c(O)c5-c5c(cc(O)c(O)c5O)C(=O)O[C@H]4[C@@H]4OC(=O)c5cc(O)c(O)c(O)c5-c5c(cc(O)c(O)c5O)C(=O)O[C@@H]34)cc(O)c(O)c2O)c1 | Avian myeloblastosis virus | 80
O=C1OC[C@H]2OC(O)[C@@H]3OC(=O)c4cc(O)c(O)c(O)c4-c4c(cc(O)c(O)c4O)C(=O)O[C@H]3[C@@H]2OC(=O)c2cc(O)c(O)c(O)c2-c2c1cc(O)c(O)c2O (some centres not stated) | Avian myeloblastosis virus | 80

This collection of values is drawn from ChEMBL document CHEMBL1151661.
